# Tested on: Thalamus
# test-details: Drug uptake in anesthetized cynomolgus monkey brain thalamus after 22.5 mins postinjection
# Type: ADME, organism-based, Macaca fascicularis
# Design: unit not given here
# details: in vivo, 0.375 h
measured-parameter: Drug uptake

O=C(OCC[18F])C1C2CCC(CC1c1cccc(/C=C\Br)c1)N2 (stereo not given) ... 3.43
O=C(OCCC[18F])C1C2CCC(CC1c1cccc(/C=C\I)c1)N2 (stereo not given) ... 4.46
O=C(OCC[18F])C1C2CCC(CC1c1cccc(/C=C\I)c1)N2 (stereo not given) ... 3.88

Incoming: State its Drug uptake for this compound: O=C(OCC[18F])C1C2CCC(CC1c1ccc(/C=C\I)cc1)N2 (stereo not given)
Outgoing: 2.9

Incoming: State its Drug uptake for this compound: O=C(OCCC[18F])C1C2CCC(CC1c1cccc(/C=C\Br)c1)N2 (stereo not given)
Outgoing: 5.02
